# Test system: EKVX NSCLC
# ASSAY_COMMENT: NCI tumour cell line growth inhibition, 48 h
QUANTITY_KIND: TGI

{"COMPOUND": "COC(=O)[C@@H]1CC(C(CN)c2cn(C(=O)OC(C)(C)C)c3ccccc23)C(=O)N1C(=O)OC(C)(C)C (some centres undefined)", "ASSAY_VALUE": "53.8 µM"}
{"COMPOUND": "Cc1cc(O)c(/C=N/C(=S)Nc2ccccc2)c(=O)o1", "ASSAY_VALUE": "> 100 µM"}
{"COMPOUND": "N#Cc1c(-c2ccc(Cl)cc2)c2c(N=Nc3c(O)ccc4ccccc34)[nH]nc2[nH]c1=O", "ASSAY_VALUE": "2.19 µM"}
{"COMPOUND": "CCCN1C(=O)/C(=C\\c2ccc(OC)c(OC)c2)SC1=Nc1ccccc1", "ASSAY_VALUE": "> 100 µM"}
{"COMPOUND": "CC1NC(=O)C2=C1C(N)=NC(=O)C2 (centres undefined)", "ASSAY_VALUE": "> 100 µM"}
{"COMPOUND": "Cc1ccc(-c2nc(-c3cn(C)c4ncccc34)cs2)cc1", "ASSAY_VALUE": "43.7 µM"}
{"COMPOUND": "O=C(NCCNc1nccc(-c2c(-c3cccc(O)c3)nc3sccn23)n1)c1ccccc1", "ASSAY_VALUE": "> 100 µM"}
{"COMPOUND": "NCCCCCCNCc1cccc2ccccc12", "ASSAY_VALUE": "> 100 µM"}
{"COMPOUND": "CN1C(=O)CC2CCC(=O)N2c2cccnc21 (centres undefined)", "ASSAY_VALUE": "> 100 µM"}
{"COMPOUND": "Cn1c(=S)c2[nH]c(SCCN3C(=O)c4ccccc4C3=O)nc2n(C)c1=O", "ASSAY_VALUE": "> 100 µM"}
{"COMPOUND": "CC(CN(C)C)C(=O)c1ccccc1 (centres undefined)", "ASSAY_VALUE": "> 79 µM"}
{"COMPOUND": "CN(C(=O)Cc1cc(Cl)c(Cl)cc1NC(=O)CN)[C@H]1CCCC[C@@H]1N1CCCC1", "ASSAY_VALUE": "> 100 µM"}
{"COMPOUND": "CCOC(=O)/C(=C/c1ccc(N(CCC#N)CCC#N)cc1C)NC(=O)/C=C/c1ccccc1", "ASSAY_VALUE": "> 100 µM"}
{"COMPOUND": "O=C(Nc1cc(Oc2cc(F)c(NC(=O)C3(C(=O)Nc4ccc(F)cc4)CC3)cc2F)ccn1)C1CC1", "ASSAY_VALUE": "5.51 µM"}

Origin of measurements: PubChem BioAssay (NCI)
